testedSystem: haematopoietic prostaglandin D synthase (H-PGDS) (Homo sapiens, UniProt O60760)
Construct: Full length human H-PGDS cDNA (Invitrogen Ultimate ORF 10H13026) was amplified by PCR; 6-His (N); TEV protease cleavage site (N); made in house; host or cells: E. coli BL21 (DE3*), vector pET22b+
Sequence (O60760 whole entry): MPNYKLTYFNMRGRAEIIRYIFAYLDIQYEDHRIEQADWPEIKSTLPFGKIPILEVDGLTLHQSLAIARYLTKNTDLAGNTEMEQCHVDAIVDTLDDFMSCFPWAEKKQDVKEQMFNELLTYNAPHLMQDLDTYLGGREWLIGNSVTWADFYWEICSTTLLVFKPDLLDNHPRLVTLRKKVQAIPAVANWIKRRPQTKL
measurementNotes: H-PGDS RapidFire high throughput mass spectrometry assay (conversion of PGH2 to PGD2)
Assay type: biochemical
conditionLabel: 10 nM H-PGDS, PGH2 formed in situ by COX-2 from arachidonic acid; read-out: Potency Range (mean pIC50) (converted)
IC50 values for the compounds below.

Known results for compounds:
smilesEntry	measurement
C[C@]1(O)C[C@@H](NC(=O)[C@H]2C[C@H](Oc3cc(F)cc4scnc34)C2)C1	100 to 1000 nM
COc1ccc(Cl)cc1O[C@H]1C[C@H](C(=O)Nc2nc(C(C)=O)cs2)C1	< 10 nM
CC(C)(O)[C@H]1C[C@H](NC(=O)[C@H]2C[C@H](Oc3cccc4cccnc34)C2)C1	100 to 1000 nM

Read the next record carefully.
Asked: State IC50 (haematopoietic prostaglandin D synthase (H-PGDS) (Homo sapiens, UniProt O60760)) of CC(C)(O)[C@H]1CC[C@H](NC(=O)[C@H]2C[C@H](Nc3cccc4cccnc34)C2)CC1 .
Given back: 100 to 1000 nM

====

testedSystem: haematopoietic prostaglandin D synthase (H-PGDS) (Homo sapiens)
Construct: Full length human H-PGDS cDNA (Invitrogen Ultimate ORF 10H13026) was amplified by PCR; 6-His (N); TEV protease cleavage site (N); made in house; host or cells: E. coli BL21 (DE3*), vector pET22b+
measurementNotes: H-PGDS RapidFire high throughput mass spectrometry assay (conversion of PGH2 to PGD2)
Assay type: biochemical
conditionLabel: 10 nM H-PGDS, PGH2 formed in situ by COX-2 from arachidonic acid; read-out: Potency Range (mean pIC50) (converted)
Description: H-PGDS RapidFire™ High Throughput Mass Spectrometry Assay The H-PGDS RapidFire™ mass spectrometric assay monitors conversion of prostaglandin H2 (PGH2) to prostaglandin D2 (PGD2) by haematopoietic prostaglandin D synthase (H-PGDS). […] Plates are then read on the RapidFire™ high throughput solid phase extraction system (Agilent) which incorporates a solid phase extraction step coupled to a triple quadrupole mass spectrometer (AB SCIEX). […]
recordedMetric: IC50

Asked: Note down IC50 recorded for CC1(NC(=O)[C@H]2C[C@H](Oc3cc(F)cc4scnc34)C2)CN(c2cccnn2)C1
Given back: 100 to 1000 nM

====

Items are presented alongside their recorded IC50.
testedSystem: haematopoietic prostaglandin D synthase (H-PGDS) (Homo sapiens, UniProt O60760)
Construct: Full length human H-PGDS cDNA (Invitrogen Ultimate ORF 10H13026) was amplified by PCR; 6-His (N); TEV protease cleavage site (N); made in house; host or cells: E. coli BL21 (DE3*), vector pET22b+
measurementNotes: H-PGDS RapidFire high throughput mass spectrometry assay (conversion of PGH2 to PGD2)
Type: biochemical
conditionLabel: 10 nM H-PGDS, PGH2 formed in situ by COX-2 from arachidonic acid; read-out: Potency Range (mean pIC50) (converted)

In the examples that follow, each entry is paired with its recorded IC50.
compound	measurement
O=C(NC1CN(c2ncc(F)cn2)C1)[C@H]1C[C@H](Oc2cccc3scnc23)C1 [Example 78]	0.01 to 0.0794 µM
CC(C)(O)[C@H]1CC[C@H](NC(=O)[C@H]2C[C@H](Oc3ccc(F)c4cccnc34)C2)CC1 [Example 292]	0.1 to 1 µM
CC(C)(C)c1csc(NC(=O)[C@H]2C[C@H](Oc3cccc4cccnc34)C2)n1 [Example 211]	0.01 to 0.0794 µM
Cc1nccc(N2CC(NC(=O)[C@H]3C[C@H](Oc4cccc5scnc45)C3)C2)n1 [Example 50]	0.01 to 0.0794 µM
CC1(NC(=O)N2CC(Oc3cccc4scnc34)C2)CN(c2ncccn2)C1 [Example 251]	0.1 to 1 µM

Asked: Retrieve IC50 measured for CC(N[C@H]1CC[C@H](NC(=O)[C@H]2C[C@H](Oc3cccc4cccnc34)C2)CC1)C(F)(F)F (mixture of isomers) [Example 173] and print it.
Given back: 0.01 to 0.0794 µM

Asked: Specify measured IC50 for Cn1nnnc1NC(=O)[C@H]1C[C@H](Oc2cc(F)ccc2OC(F)F)C1 [Example 3] .
Given back: 0.1 to 1 µM

Asked: Read the entry CC(C)Nc1nccc(N2CC(NC(=O)[C@H]3C[C@H](Oc4cccc5scnc45)C3)C2)n1 [Example 70] and write its reported IC50.
Given back: 0.1 to 1 µM
